test system: PPARg:RXRa 90nM:30nM, anti-RXR (NR concentration 90 nM, RXRa partner concentration 30 nM); test: PBM binding z-score (relative to random genomic background probes); higher = stronger binding; sequences stand for … in GC…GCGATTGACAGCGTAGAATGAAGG
So I've got a bunch of sequences here, and I need their PBM binding z-score values.
Numbers only.

Known PBM binding z-score results, listed for orientation:
INSERT INTO results (seq, measured_value) VALUES
  ('TCTAGTTGGTCAAAGGTCTCACACTCGAAATGCG', 8.53),
  ('CCGAGTAGGTTACGACGGGGCATTCAGTGCGAAT', 0.19),
  ('CCGAGTAGGTTACGAGGGGGCAATCAGTGCGAAT', 2.21),
  ('CGTCCAAGGGCAGCAGGTCAGTGAAAGCGACGTG', -0.019),
  ('CCTAGTTGGTCAAGGTCACGCACGCTATAGGTAC', 3),
  ('CCTACGGGGCCAAAGGTCATTGATTCCAATGCTC', 11.1),
  ('TCATATAGGTGAAAGGTGAAAGTCGGTGTGGTAA', 12.3);

From here, focus on the item given below.
Which PBM binding z-score value belongs to CGAACTAGGTCACCGGGACAGTGAAGAGGTTGGA ?
7.12

Data provenance is the supplement of paper PMC6555819.
